Examples of molecules with documented log10 of IC50 follow.
Biological target: Phosphatidylinositol 4,5-bisphosphate 3-kinase catalytic subunit delta isoform (Homo sapiens)
Sequence (O00329 whole entry, canonical isoform): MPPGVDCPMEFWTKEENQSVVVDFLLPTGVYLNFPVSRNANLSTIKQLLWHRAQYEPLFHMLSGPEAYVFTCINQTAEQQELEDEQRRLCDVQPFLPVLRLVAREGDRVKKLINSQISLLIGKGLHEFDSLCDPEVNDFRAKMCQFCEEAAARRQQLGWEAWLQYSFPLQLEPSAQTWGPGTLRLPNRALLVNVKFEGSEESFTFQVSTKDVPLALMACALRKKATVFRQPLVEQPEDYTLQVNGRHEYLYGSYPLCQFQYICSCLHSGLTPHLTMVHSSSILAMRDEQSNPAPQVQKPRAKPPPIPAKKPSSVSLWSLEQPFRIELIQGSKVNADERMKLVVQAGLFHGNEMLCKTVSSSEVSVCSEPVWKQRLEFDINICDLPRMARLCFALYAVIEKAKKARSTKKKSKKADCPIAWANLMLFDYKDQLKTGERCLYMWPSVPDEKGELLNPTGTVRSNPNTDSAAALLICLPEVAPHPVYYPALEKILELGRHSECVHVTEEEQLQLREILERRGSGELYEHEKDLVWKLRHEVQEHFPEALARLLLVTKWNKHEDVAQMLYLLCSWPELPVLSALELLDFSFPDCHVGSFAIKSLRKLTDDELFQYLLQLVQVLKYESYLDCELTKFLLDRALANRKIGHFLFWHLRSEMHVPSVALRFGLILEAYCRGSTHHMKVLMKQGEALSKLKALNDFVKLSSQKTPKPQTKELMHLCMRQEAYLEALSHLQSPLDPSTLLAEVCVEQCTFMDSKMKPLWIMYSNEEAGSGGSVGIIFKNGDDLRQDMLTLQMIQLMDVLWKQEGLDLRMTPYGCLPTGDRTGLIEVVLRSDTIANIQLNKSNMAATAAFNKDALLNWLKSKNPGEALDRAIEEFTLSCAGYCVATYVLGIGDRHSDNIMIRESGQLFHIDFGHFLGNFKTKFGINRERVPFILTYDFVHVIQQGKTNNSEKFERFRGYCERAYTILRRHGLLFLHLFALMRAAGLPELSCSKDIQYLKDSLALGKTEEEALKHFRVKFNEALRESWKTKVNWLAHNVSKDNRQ
Assay: Inhibition of PI3Kdelta (unknown origin) using PIP2 as substrate preincubated for 1 hr followed by substrate addition and measured after 60 mins in presence of ATP by ADP-glo assay
Transform log10 | Measure IC50 | Unit nM

- smiles data: "Cc1cc(-c2ccn3nc(N)c(C(=O)N[C@H]4CC[C@](C)(O)CC4)c3n2)cc2c1C(=O)N([C@@H](C)C1CC1)C2"
  readout label: "log10 of IC50"
  observed measurement: 2.19

Determine from records and report log10 of IC50 for C[C@@H](C1CC1)N1Cc2cc(-c3ccn4nc(N)c(C(=O)N[C@@H](CO)C5CC5)c4n3)cc(OC(F)F)c2C1=O
3.49

Indicate the recorded log10 of IC50 value for this molecule: COc1cc(-c2ccn3nc(N)c(C(=O)NC4CC4)c3n2)cc2c1C(=O)N([C@@H](C)C1CC1)C2
2.66

Quote log10 of IC50 reported for C[C@@H](C1CC1)N1Cc2cc(-c3ccn4nc(N)c(C(=O)NC5CC5)c4n3)cc(C(F)(F)F)c2C1=O please.
3.29

Name the recorded log10 of IC50 of the molecule listed here: CS(=O)(=O)Nc1cc(-c2ccn3nc(N)c(C(=O)NC4CC4)c3n2)cc2c1C(=O)N([C@@H](C1CC1)C(F)(F)F)C2
3.66

Give the reported log10 of IC50 for this molecule. C[C@@H](C1CC1)N1Cc2cc(-c3ccn4nc(N)c(C(=O)N[C@H]5CC[C@](O)(C(F)(F)F)CC5)c4n3)cc(NS(C)(=O)=O)c2C1=O
3.03

Report measured log10 of IC50; entry is Cc1cc(-c2ccn3nc(N)c(C(=O)N[C@H]4CNC(=O)C4)c3n2)cc2c1C(=O)N([C@@H](C)C1CC1)C2
2.89
